B1: POU domain, class 6, transcription factor 2, residues 609 to 663; numbered along this chain, P78424 (parent)
chain: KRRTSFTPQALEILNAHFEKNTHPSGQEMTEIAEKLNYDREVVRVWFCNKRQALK

Variants of: B1
Assay: abundance fitness (aPCA) (normalised: wild type 0, dead -1); higher = more abundant; growth selection in yeast, the domain comes from the species named
Details: Homo sapiens
The reader will find reported abundance fitness values listed item by item below.
// response body must contain only the number

Worked cases, answers included:
N21R = -0.274
V43K = -1.17
V45Y = -0.653
K1Y = -0.41
D39S = -0.052
E19R = -0.05
K50D = -0.946
T7C = -0.079
D39I = -0.597
N49G = -0.13

Consider the variant `G26F` and give its measured abundance fitness. -0.173

// repeat for `C48W` and report 0.02

// repeat for `N37V` and report -0.456

// repeat for `K1L` and report -0.465

// repeat for `Q27L` and report 0.064

// repeat for `E34M` and report -0.285

// repeat for `R3F` and report 0.053

// repeat for `L14I` and report -0.898

// repeat for `N21Q` and report -0.044

// repeat for `K20Y` and report -0.224

// repeat for `H17D` and report -0.156

// repeat for `Q52W` and report -0.244
